Experiment: xn = mol fraction of the nth substance listed, in the solute-free solvent
Settings: 283.15 K; x2 = 0.2
Returns one of y or n; y when solubility (g/100 g solution) is >= 0.3.

COMPOUND | CAT
Cc1c(Br)c(=O)n(C2CCCC2)c2nc(Cl)ncc12 + CC1=CC(=O)CC(C)(C)C1 + CC(C)O | n
N#CCNC(=O)c1cnccc1C(F)(F)F + CCOC(C)=O + CCO | y
COC(=O)C(N)CS.Cl (configuration not stated) + CCO + ClCCl | y
O=C(NC(C(=O)O)c1ccccc1)OCc1ccccc1 (configuration not stated) + CCO + O | y
CCOC(=O)OC1=C(c2cc(C)ccc2C)C(=O)NC12CCC(OC)CC2 (configuration not stated) + CO + O | n
CCOC(=O)OC1=C(c2cc(C)ccc2C)C(=O)NC12CCC(OC)CC2 (configuration not stated) + CCO + O | n
Cl.N=C(N)NC(=N)N1CCOCC1 + O + CC(C)O | y
Cl.NC(Cc1ccccc1)C(=O)OCc1ccccc1 (configuration not stated) + CO + CC(C)=O | y
Cc1c(Br)c(=O)n(C2CCCC2)c2nc(Cl)ncc12 + CCOC(C)=O + CCO | n
Cc1c(Br)c(=O)n(C2CCCC2)c2nc(Cl)ncc12 + C1CCOC1 + CCO | y
CCOC(=O)OC1=C(c2cc(C)ccc2C)C(=O)NC12CCC(OC)CC2 (configuration not stated) + CC(C)O + O | y
CCOC(=O)OC1=C(c2cc(C)ccc2C)C(=O)NC12CCC(OC)CC2 (configuration not stated) + CC(C)=O + O | y

* * *

Assay: xn = mol fraction of the nth substance listed, in the solute-free solvent
Settings: 318.15 K; x2 = 0.1666

COMPOUND | solubility (g/100 g solution)
Nc1nc2ccc(OC(F)(F)F)cc2s1 + CCCO + O | 27.5
c1ccc(-c2ccc(C(c3ccccc3)n3ccnc3)cc2)cc1 (centres undefined) + CC(C)O + O | 2.29
c1ccc(-c2ccc(C(c3ccccc3)n3ccnc3)cc2)cc1 (centres undefined) + CCCO + O | 2.34
CC1CCC2C(C)C(OC(=O)CCC(=O)O)OC3OC4(C)CCC1C32OO4 (centres undefined) + CC(C)O + O | 3.23

* * *

Experiment: xn = mol fraction of the nth substance listed, in the solute-free solvent
Details: 313.15 K; x2 = 0.3
solubility (g/100 g solution) values, listed per item

COMPOUND | solubility (g/100 g solution)
Cc1c(Br)c(=O)n(C2CCCC2)c2nc(Cl)ncc12 + CC1=CC(=O)CC(C)(C)C1 + CC(C)O | 1.92
O=C(NC(C(=O)O)c1ccccc1)OCc1ccccc1 (configuration not stated) + CCO + O | 6.85
Cl.NC(Cc1ccccc1)C(=O)OCc1ccccc1 (configuration not stated) + CO + CC(C)=O | 2.35
Cc1ncc(CO)c(CO)c1O.Cl + O + CC#N | 1.67
CCOc1ccccc1C(N)=O + CC#N + CC(C)O | 11.3
Cc1ncc(CO)c(CO)c1O.Cl + O + CC(C)O | 1.89
Cl.N=C(N)NC(=N)N1CCOCC1 + O + CC(C)O | 4.8
CCOc1ccccc1C(N)=O + CCO + CC#N | 14.4
Cc1ncc(CO)c(CO)c1O.Cl + O + CCCO | 2.62
CCOc1ccccc1C(N)=O + CO + CC#N | 16
Cc1c(Br)c(=O)n(C2CCCC2)c2nc(Cl)ncc12 + C1CCOC1 + CCO | 4.9
Cc1c(Br)c(=O)n(C2CCCC2)c2nc(Cl)ncc12 + CCOC(C)=O + CCO | 0.892
